Taken from patent US20120041012A1.

Reported values: Ki for SSTR5 (Homo sapiens), one per item.
Please respond with the number in nM and leave the unit unwritten.

CCOc1cc(CN2CCC3(CC2)CNC(=O)C3)cc(OCC)c1-c1ccc(F)cc1; 21

Prompt: Can you share its Ki? I mean this compound: CCOc1cc(CN2CCC3(CC2)CC(=O)N(c2ccc(C(=O)O)cc2)C3)cc(OCC)c1OCC(F)(F)F
Completion: 55

Prompt: What about O=C(O)c1ccc(N2CC3(CCN(Cc4cc(OC5CC5)c(-c5ncc(F)cc5F)c(OC5CC5)c4)CC3)CC2=O)cc1 ?
Completion: 4.5

* * *

# system tested: SSTR5 (Homo sapiens, UniProt P35346)
# Sequence (P35346 whole entry): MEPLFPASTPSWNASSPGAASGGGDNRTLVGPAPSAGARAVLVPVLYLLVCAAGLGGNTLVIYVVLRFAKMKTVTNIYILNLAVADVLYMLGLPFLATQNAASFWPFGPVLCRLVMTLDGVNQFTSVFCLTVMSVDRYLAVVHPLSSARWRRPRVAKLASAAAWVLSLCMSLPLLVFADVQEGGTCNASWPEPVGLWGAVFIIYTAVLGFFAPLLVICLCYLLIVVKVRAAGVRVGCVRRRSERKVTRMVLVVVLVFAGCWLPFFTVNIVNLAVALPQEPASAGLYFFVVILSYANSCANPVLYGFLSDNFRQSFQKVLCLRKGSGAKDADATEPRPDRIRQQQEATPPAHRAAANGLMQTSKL
pKi: −log10 of the molar value.
Label scheme for pKi: lower than 8 is condition not met, 8 and above is condition met.

CCOc1cc(CN2CCC3(CC2)CC(=O)N(c2ccc(C(=O)O)cc2)C3)ccc1Cl; condition not met
CCOc1cc(CN2CCC3(CC2)CC(=O)N(c2ccccc2S(C)(=O)=O)C3)cc(OCC)c1-c1ccc(F)cc1; condition met
CCOc1cc(CN2CCC3(CC2)CC(=O)N(c2ccc(C(=O)O)nc2)C3)cc(OCC)c1-c1ccc(F)cc1; condition met
CCOc1cc(CN2CCC3(CC2)CC(=O)N(c2ccc(C(=O)O)cc2)C3)cc(-c2ccc(F)cc2F)c1; condition not met
CCOc1cc(CN2CCC3(CC2)CC(=O)N(c2cccc(C(N)=O)c2)C3)cc(OCC)c1-c1ccc(F)cc1; condition met

Prompt: // inclusive: pKi at least 8? input: CCOc1cc(CN2CCC3(CC2)CC(=O)N(c2ccc(-c4noc(=O)[nH]4)cc2)C3)cc(OCC)c1-c1ccc(F)cc1
Completion: condition met

Prompt: What about CCOc1cc(CN2CCC3(CC2)CC(=O)N(Cc2cccc(C(=O)O)c2)C3)cc(OCC)c1-c1ccc(F)cc1 ?
Completion: condition not met
